Tested on: ryegrass, Italian (Italian ryegrass, Lolium multiflorum)
Test: Test C greenhouse herbicide test, pre- and postemergence
Format: in vivo
Conditions: Preemergence, 62 g ai/ha; scale 0 to 100, 0 is no effect, 100 is complete control
Reported property: Plant response rating, Ryegrass, Italian

Identify measured Plant response rating, Ryegrass, Italian corresponding to "COC(=O)Oc1c(C)nn(C)c(=O)c1-c1c(C)sc2ccc(C)cc12"
70

Read off the recorded Plant response rating, Ryegrass, Italian for "CC(=O)Oc1c(C)nn(C)c(=O)c1-c1c(C)sc2ccc(C(F)(F)F)cc12"
90

Please supply the value of reported Plant response rating, Ryegrass, Italian for the item "Cc1ccc2sc(C)c(-c3c(OC(=O)OC(C)C)c(C)nn(C)c3=O)c2c1"
50

Specify reported Plant response rating, Ryegrass, Italian for the molecule shown: "Cc1nn(C)c(=O)c(-c2ccc(F)c3ccccc23)c1O"
95

Entry "Cc1nn(C)c(=O)c(-c2c(C)sc3ccc(Br)cc23)c1O" needs its Plant response rating, Ryegrass, Italian filled in; supply it.
90

For "CCC(=O)Oc1c(C)nn(C)c(=O)c1-c1ccc(Br)c2ccccc12" , write its Plant response rating, Ryegrass, Italian.
100

More entries:
Entry "CCC(=O)Oc1c(C)nn(C)c(=O)c1-c1ccc(F)c2ccccc12" needs its Plant response rating, Ryegrass, Italian filled in; supply it.
95

Dear colleague, please send me the reported Plant response rating, Ryegrass, Italian for "COC(=O)Oc1cnn(C)c(=O)c1-c1c(C)sc2ccccc12" when you can.
5

Please look at this molecule and report its Plant response rating, Ryegrass, Italian: "COC(=O)Oc1c(OC)nn(C)c(=O)c1-c1c(C)ccc2ccccc12"
55

The measured values listed here are drawn from patent US10597388B2.
